B1: library; numbered along this chain (parent)
chain: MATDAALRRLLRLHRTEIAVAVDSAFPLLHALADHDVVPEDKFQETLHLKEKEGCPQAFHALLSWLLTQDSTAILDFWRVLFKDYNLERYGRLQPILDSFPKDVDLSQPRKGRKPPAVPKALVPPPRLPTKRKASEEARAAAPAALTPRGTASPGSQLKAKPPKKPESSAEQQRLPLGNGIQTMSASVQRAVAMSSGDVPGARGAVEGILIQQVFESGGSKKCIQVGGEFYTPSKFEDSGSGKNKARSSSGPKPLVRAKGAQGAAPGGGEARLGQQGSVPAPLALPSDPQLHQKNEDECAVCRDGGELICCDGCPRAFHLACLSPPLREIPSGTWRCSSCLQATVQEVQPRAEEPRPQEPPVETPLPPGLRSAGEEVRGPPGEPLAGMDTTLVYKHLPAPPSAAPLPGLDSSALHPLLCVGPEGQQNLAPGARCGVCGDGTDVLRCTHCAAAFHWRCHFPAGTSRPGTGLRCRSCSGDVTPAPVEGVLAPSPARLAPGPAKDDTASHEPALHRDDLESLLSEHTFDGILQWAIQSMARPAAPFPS

Variants of: B1
Assay: AIRE transcriptional activation functional score (insulin promoter-GFP; nonsense median 0, synonymous median 1) (normalised score); higher = higher AIRE activity (more reporter activation)
Settings: with insulin promoter-GFP reporter in HEK293
Decide using AIRE transcriptional activation functional score: a value greater than or equal to 0.7 is satisfied, a smaller one is not satisfied.

- VARIANT_DESCRIPTOR: "K102Y"
  CATEGORY: "satisfied"
- VARIANT_DESCRIPTOR: "P326I"
  CATEGORY: "satisfied"
- VARIANT_DESCRIPTOR: "A141M"
  CATEGORY: "not satisfied"
- VARIANT_DESCRIPTOR: "A142L"
  CATEGORY: "satisfied"
- VARIANT_DESCRIPTOR: "P124D"
  CATEGORY: "not satisfied"
- VARIANT_DESCRIPTOR: "V188L"
  CATEGORY: "satisfied"
- VARIANT_DESCRIPTOR: "C446E"
  CATEGORY: "not satisfied"
- VARIANT_DESCRIPTOR: "Q157S"
  CATEGORY: "satisfied"
- VARIANT_DESCRIPTOR: "Q358H"
  CATEGORY: "satisfied"
- VARIANT_DESCRIPTOR: "A496D"
  CATEGORY: "not satisfied"
- VARIANT_DESCRIPTOR: "R494E"
  CATEGORY: "not satisfied"
- VARIANT_DESCRIPTOR: "P254T"
  CATEGORY: "satisfied"
- VARIANT_DESCRIPTOR: "E137K"
  CATEGORY: "not satisfied"
